Target: clKASIV (Cuphea lanceolata)
Sequence (Q949J2 106-538): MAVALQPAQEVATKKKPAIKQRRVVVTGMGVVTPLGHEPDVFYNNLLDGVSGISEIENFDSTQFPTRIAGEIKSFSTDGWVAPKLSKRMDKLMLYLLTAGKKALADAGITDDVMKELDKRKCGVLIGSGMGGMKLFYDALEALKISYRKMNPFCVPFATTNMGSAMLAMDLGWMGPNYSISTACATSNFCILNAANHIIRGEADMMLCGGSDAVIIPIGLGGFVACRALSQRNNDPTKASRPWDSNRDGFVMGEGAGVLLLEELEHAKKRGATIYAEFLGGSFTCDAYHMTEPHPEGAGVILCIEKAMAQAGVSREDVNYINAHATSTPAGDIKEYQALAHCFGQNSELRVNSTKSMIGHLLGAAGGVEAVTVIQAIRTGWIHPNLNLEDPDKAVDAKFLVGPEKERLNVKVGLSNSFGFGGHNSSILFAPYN
Assay: Enzyme assay: sensitivity of recombinant clKASIV to cerulenin
Conditions: condensation assay with [2-14C]-malonyl-ACP
Reported Metric: IC50 (µM)

molecule="C/C=C/C/C=C/CCC(=O)[C@H]1O[C@H]1C(N)=O [cerulenin, Cerulenin]" measured=20

Where do these numbers come from? They come from patent US20030054524A1.
